Source of measurements: ChEMBL document CHEMBL3433997

biological target: Glucose transporter (Leishmania mexicana); test: ST_JUDE_LEISH: Cytotoxicity at 2uM final concentration against transgenic Leishmania Mexicana promastigotes LmGT2 that are glucose transport deficient and complemented with the L. Mexicana glucose transporter 2. Activity is measured by DNA content using SYBR green in vitro; type: functional
Some compounds, each annotated with its measured inhibition.
Give the value, in units of %, as a plain number.

>>> test_result("Cc1ccc(-n2cc(CNCCc3nc(C)c[nH]3)c(-c3ccc(F)cc3)n2)cc1")
2.6
>>> test_result("O=C(/C=C/c1ccc(Cl)c(Cl)c1)NCCCCCCN1CCN(C(=O)Nc2ccc(Cl)c(Cl)c2)CC1")
4.14
>>> test_result("Nc1nc(N)c2c(ccc3c2ccn3CC2CC2)n1")
0.91
>>> test_result("COc1ccc(N2CCN(CCCCNC(=O)c3ccc(/C=C/c4ccc(Cl)c(Cl)c4)cc3)CC2)c(OC)c1")
2.02

For NC(=O)c1cnc2ccc(-c3cncs3)cc2c1Nc1ccc(F)c(Cl)c1 , write its inhibition.
1.95

For c1ccc(-c2ccc3c(Nc4ccc5[nH]ncc5c4)ccnc3c2)nc1 , write its inhibition.
5.04
